- System: L929 cell lines
- Measurement description: Cytotoxicity MTT assay on L929 fibroblasts
- Assay type: cell-based
- Stated conditions: 100 µM
Reported property: cell viability (%)
// note: answer is a bare numeric in %

Compound	cell viability (%)
N#Cc1ccc2[nH]c(-c3ccc(-c4nnc(SCC(=O)c5ccc(F)cc5F)n4-c4ccccc4)cc3)nc2c1 [6h]	28.1
N#Cc1ccc(C(=O)CSc2nnc(-c3ccc(-c4nc5cc(C#N)ccc5[nH]4)cc3)n2-c2ccccc2)cc1 [6c]	30.9

Recall the recorded cell viability (%) for N#Cc1ccc2[nH]c(-c3ccc(-c4nnc(SCC(=O)c5ccc(F)cc5)n4-c4ccccc4)cc3)nc2c1 [6d] with L929 cell lines and state it.
34.2

----------
Listed here: items and their measured viability at 48 h, 100 µM.
- Measurement description: Cytotoxicity MTT assay on L929 fibroblasts
- Type: cell-based
- Stated conditions: mouse, L929 fibroblast cells; 100 μM, 48 h, L929 cell lines, MTT
// note: answer is a bare numeric in %

Compound	Experimental result
N#Cc1ccc2nc(-c3ccc(-c4nnc(SCC(=O)c5ccc(Cl)cc5Cl)n4-c4ccccc4)cc3)[nH]c2c1 [6j]	32.5
N#Cc1ccc2nc(-c3ccc(-c4nnc(SCC(=O)c5ccc(Cl)cc5)n4-c4ccccc4)cc3)[nH]c2c1 [6i]	53.6

Kindly review the next compound as well.
Please report the recorded viability at 48 h, 100 µM for COc1ccc(C(=O)CSc2nnc(-c3ccc(-c4nc5cc(C#N)ccc5[nH]4)cc3)n2-c2ccccc2)cc1 [6b] .
32.1

----------
- Test system: C. glabrata (ATCC 9)
- Measurement description: In vitro antifungal activity (CLSI) against C. glabrata
- Assay type: cell-based
- Stated conditions: from MIC values, C. glabrata
Reported property: Effectiveness against C. glabrata compared with voriconazole

Compound	Experimental result
COc1ccc(C(=O)CSc2nnc(-c3ccc(-c4nc5cc(C#N)ccc5[nH]4)cc3)n2-c2ccccc2)cc1	two times more effective
N#Cc1ccc2[nH]c(-c3ccc(-c4nnc(SCC(=O)c5ccc(-c6ccccc6)cc5)n4-c4ccccc4)cc3)nc2c1	same activity
N#Cc1ccc2[nH]c(-c3ccc(-c4nnc(SCC(=O)c5ccc(F)cc5F)n4-c4ccccc4)cc3)nc2c1	same activity
N#Cc1ccc2nc(-c3ccc(-c4nnc(SCC(=O)c5ccc(Cl)cc5Cl)n4-c4ccccc4)cc3)[nH]c2c1	two times more effective

----------
Listed here: items and their measured cell viability (%).
- Tested on: L929 cell lines
- Measurement description: Cytotoxicity MTT assay on L929 fibroblasts
- Assay type: cell-based
- Stated conditions: 100 µM

Past entries and their recorded results:
Compound	cell viability (%)
N#Cc1ccc2[nH]c(-c3ccc(-c4nnc(SCC(=O)c5ccc(Br)cc5)n4-c4ccccc4)cc3)nc2c1	27.6 ± 1.02%
N#Cc1ccc2[nH]c(-c3ccc(-c4nnc(SCC(=O)c5ccccc5)n4-c4ccccc4)cc3)nc2c1	37.6 ± 3.55%
N#Cc1ccc2[nH]c(-c3ccc(-c4nnc(SCC(=O)c5cccc([N+](=O)[O-])c5)n4-c4ccccc4)cc3)nc2c1	30.3 ± 0.41%

Please report the recorded cell viability (%) for N#Cc1ccc2[nH]c(-c3ccc(-c4nnc(SCC(=O)c5ccc(Cl)c(Cl)c5)n4-c4ccccc4)cc3)nc2c1 .
34.6 ± 3.51%
